Data origin: PubChem BioAssay (NCI)

Consider the following compounds; for each one, report its GI50.
System: A549 NSCLC
Assay info: NCI tumour cell line growth inhibition, 48 h

Ask: Quick check: GI50 of COC1=C(OC)[C@]2(OC)c3c(O)c(OC)c4c(c3O[C@@]23O[C@@H](c2ccccc2)CC=C3C1=O)[C@@H](OC)C[C@H](c1ccccc1)O4 ?
Reply: 2.21 µM

Ask: # input compound: O=C1c2ccccc2C(=O)c2c1cc1c(c2[N+](=O)[O-])OCO1 ; wanted: its GI50
Reply: 4.94 µM

Ask: What value of GI50 has been reported for the following compound? Nc1nc2ccccc2c2c1S(=O)(=O)c1ccc(Cl)cc1C2=O
Reply: 3.26 µM

Ask: Need GI50 of CCn1ccnc1C(=O)/C=C/c1ccc(CC(=O)Nc2ccc(F)cc2)cc1 , thanks.
Reply: 4.16 µM

Ask: # lookup: GI50 of COc1cc(C(=O)/C=C/c2c(C(F)(F)F)nc3ccccn23)cc(OC)c1OC
Reply: 4.04 µM

Ask: # query: GI50 of entry C=CCN(CC=C)C(=O)[C@H](CC)[C@@H]1CC[C@@H](C)[C@@H]([C@H](C)[C@@H](O)[C@@H](C)C(=O)[C@H](CC)C2O[C@]3(C=C[C@@H](O)[C@]4(CC[C@@](C)([C@H]5CC[C@](O)(CC)[C@H](C)O5)O4)O3)[C@H](C)C[C@@H]2C)O1 (some centres undefined)
Reply: 3.37 µM

Ask: # query: GI50 of entry c1ccc2c(CNCCN3CCNCC3)c3ccccc3c(CNCCN3CCNCC3)c2c1
Reply: 35.1 µM

Ask: // GI50 lookup, key: S=C(NCc1ccc2c(c1)OCO2)N1CCN(c2ncnc3c2oc2ccccc23)CC1
Reply: 7.24 µM

Ask: So what does the record say about GI50 for COc1cc(/C=C/C(=O)O[C@H]2[C@H](O[C@@H]3O[C@@H](C)[C@H](O)[C@@H](O)[C@H]3O)[C@@H](O)[C@H](OCCc3ccc(O)c(O)c3)O[C@@H]2COC2OCC(O)(CO)C2O)ccc1O (some centres undefined) ?
Reply: > 100 µM

###

Test system: OVCAR-5 ovarian
Assay info: NCI tumour cell line growth inhibition, 48 h
Please respond with reported TGI for every item in the list.

Ask: Look up TGI: Cc1cc(O)c2c3c(ccc2c1)C(=O)c1c(O)cccc1C3=O
Reply: > 100 µM

Ask: I would be grateful if you could share the reported TGI for Oc1cccnc1/C=N/OCc1ccccc1 .
Reply: > 100 µM

Ask: Which TGI value is on record for N#Cc1c(NC(=O)c2ccccc2F)sc2c1CCCC2 ?
Reply: > 25 µM

Ask: What measured TGI goes with c1ccc(CN2COc3c(ccc4c5c(ccc34)CN(Cc3ccccc3)CO5)C2)cc1 ?
Reply: > 100 µM

Ask: Recorded TGI of O=S(=O)(NCCCNc1cc(-c2cn(-c3ccccc3)nc2-c2cccc(O)c2)ccn1)c1ccc(F)cc1 , please.
Reply: 33.5 µM

Ask: Can you share its TGI? I mean this compound: S=C(NCc1ccc2c(c1)OCO2)N1CCN(c2ncnc3c2oc2ccccc23)CC1
Reply: > 100 µM

Ask: Name the reported TGI value associated with the compound O=C(CC(=O)c1ccccc1)C(=O)Nc1ccc(Cl)cc1
Reply: > 100 µM

Ask: So what's the measured TGI for this one? O=C(O)C12CC3CC(CC(F)(C3)C1)C2
Reply: > 100 µM

Ask: Would you kindly share the measured TGI for Cc1ccc(S(=O)(=O)NC(=O)Nc2cc(Cl)c(S(N)(=O)=O)cc2S(N)(=O)=O)cc1 ?
Reply: > 100 µM

Ask: Entry CCOC(=O)C(Cc1ccc(N(CCCl)CCCl)cc1)NC(=O)C(Cc1ccccc1)NC(C)=O (stereo unspecified) : reported TGI = ?
Reply: > 0.435 µM

Ask: Please report the recorded TGI for O=[N+]([O-])/C=C/c1ccc(Cl)cc1Cl .
Reply: 46.3 µM

###

Test system: RPMI-8226 leukemia
Assay info: NCI tumour cell line growth inhibition, 48 h
Endpoint name: TGI

Ask: Entry CN(C)c1nc(N)c(C#N)c(C#N)c1C#N : reported TGI = ?
Reply: > 10 µM

Ask: For the compound C[C@H]1CN(C2COC2)CCN1c1ccc(Nc2cc(-c3ccnc(N4CCn5c(cc6c5CC(C)(C)C6)C4=O)c3CO)cn(C)c2=O)nc1 , what TGI is on record?
Reply: 60.7 µM

Ask: Consider the compound CCN1C[C@]2(C)CC[C@H](OC)C34C5C[C@@H]6[C@@H](OC)C[C@@](OC)(C5[C@H]6OCc5ccccc5)C(C13)[C@H](OC(C)=O)[C@@H]42 (some centres undefined) and give its measured TGI.
Reply: > 100 µM

Ask: Please give the measured TGI for this compound: C=CCNC(=O)CN(CC(=O)O)C1CCCCC1N(CC(=O)O)CC(=O)O (centres undefined)
Reply: > 100 µM

Ask: Request the reported TGI associated with C#CCNC(=O)NC(CCCCNC(=O)OCc1ccccc1)C(=O)OCc1ccccc1 (centres undefined)
Reply: 70.9 µM

Ask: Entry CSc1nc2c3ccccc3ccn2c1C(=O)N/N=C/c1ccccc1 has what TGI?
Reply: > 100 µM

Ask: What does the record list as TGI for Nc1nc2ccccc2c2c1S(=O)(=O)c1ccc(Cl)cc1C2=O ?
Reply: 3.31 µM

Ask: Endpoint output: TGI of COc1c(OC(C)C)cc2cc(O)c(C(=O)NC3Cc4ccc(c(Cl)n4)O[C@@H]4C=C5C#C/C(=C\C#CC6OC56C4OC4CC(C)(O)C(O)C(C)O4)C(OC4CC(O)C(N(C)C)C(C)O4)COC3=O)cc2c1OC (some centres undefined) . Value?
Reply: 3.67 µg/mL

Ask: So what does the record say about TGI for O=C(O)CCCc1ccccc1 ?
Reply: 79.2 µM

Ask: Report TGI for O=C(c1c(O)cc(O)cc1O)C1Cc2ccccc21 (centres undefined) please.
Reply: > 100 µM

Ask: Find the recorded TGI belonging to Cc1ccc(/C=C2\Cc3cc(C)c(C)cc3C2=O)c(C(=O)O)c1 and report it.
Reply: > 100 µM

Ask: Could you share which TGI value was measured for CCOC(=O)/C=C/C1(CCOC(C)=O)CCCCC1 ?
Reply: > 10 µM

Ask: // returns reported TGI for input COc1ccc(-c2c3c(N)c4c(nc3nc3c2c(C)nn3-c2ccccc2)CCCC4)cc1
Reply: 4.32 µM

Ask: Tell me the measured TGI of c1ccc(-c2csc3ncn4cnnc4c23)cc1 , please.
Reply: > 100 µM

Ask: Any idea what TGI was measured for N#CC1C(N)=NNC12Nc1ccccc1S2 (centres undefined) ?
Reply: > 100 µM

Ask: Could you tell me which TGI is on file for O=S(=O)(O)c1ccc2cc3nn(-c4ccc(/C=C/c5ccc(-n6nc7cc8ccc(S(=O)(=O)O)cc8cc7n6)cc5S(=O)(=O)O)c(S(=O)(=O)O)c4)nc3cc2c1 ?
Reply: > 100 µM

Ask: Bench note: what TGI did O=C(/C=C(\Nc1ccccc1O)c1ccc(Br)cc1)C(Cl)(Cl)Cl show?
Reply: 7.29 µM

Ask: Which TGI value is on record for C[C@H]1C[C@H]2[C@@H]3CCC4=CC(=O)C=C[C@]4(C)C3=CC[C@]2(C)[C@@]1(O)C(=O)CO ?
Reply: > 100 µM

Ask: # get_value(readout='TGI', item= O=C(O)Cc1cccc2c(=O)c3cccc([N+](=O)[O-])c3[nH]c12 )
Reply: > 100 µM

Ask: If you can, please state the reported TGI value of COc1ccc(C(=O)Oc2c(C#N)sc3c2c(=O)n(-c2ccccc2)c(=S)n3-c2ccccc2)cc1 .
Reply: 47.1 µM

Ask: Param item = c1ccc(CN2COc3c(ccc4c5c(ccc34)CN(Cc3ccccc3)CO5)C2)cc1 ; retrieve measured TGI.
Reply: > 100 µM

Ask: Which value of TGI has been reported for Cc1ccc(S(=O)(=O)NC(=O)OC23COCN2COC3)cc1 in the records?
Reply: 73 µM

Ask: Could you tell me which TGI is on file for Cc1cc(O)c2c3c(ccc2c1)C(=O)c1c(O)cccc1C3=O ?
Reply: > 100 µM

Ask: For C[C@@H](NC(=O)c1ccc(F)cc1)c1ccc2c(c1)CCN2C(=O)C1CCOCC1 , what is its reported TGI?
Reply: > 100 µM

Ask: State the recorded TGI for this entry: O=S(=O)(NCCCNc1cc(-c2cn(-c3ccccc3)nc2-c2cccc(O)c2)ccn1)c1ccc(F)cc1
Reply: 7.63 µM

Ask: Quick check: TGI of C/C(N)=N/OCc1nc(C)no1 ?
Reply: > 100 µM

Ask: Can you share its TGI? I mean this compound: O=C1/C(=C/c2cccs2)NC(=S)N1CN1CCCCC1
Reply: > 100 µM

Ask: # query: TGI of entry CC(=O)N(O)c1ccc(/C=C/c2ccccc2)cc1
Reply: > 100 µM

Ask: I would be grateful if you could share the reported TGI for Cc1ccc(/N=N/C(=NNC(=O)c2ccc(C)cc2)c2ccc(N(C)C)cc2)cc1 .
Reply: 70.5 µM

Ask: Value lookup for TGI; key = COC1=C(OC)C(=O)C(CCCCCCCCCCO)=C(C)C1=O
Reply: 29.5 µM

Ask: Which measured TGI value corresponds to COc1cc(/C=C/C(=O)O[C@H]2[C@H](O[C@@H]3O[C@@H](C)[C@H](O)[C@@H](O)[C@H]3O)[C@@H](O)[C@H](OCCc3ccc(O)c(O)c3)O[C@@H]2COC2OCC(O)(CO)C2O)ccc1O (some centres undefined) ?
Reply: > 100 µM

Ask: # TGI lookup, item O=C(O)C12CC3CC(CC(F)(C3)C1)C2
Reply: > 100 µM

Ask: Consider the compound CC(C)CCC[C@@H](C)[C@H]1CC[C@H]2C3=C[C@H](OS(=O)(=O)O)[C@@]4(O)C[C@@H](O)CC[C@]4(C)[C@@]3(O)CC[C@]12C and give its measured TGI.
Reply: > 100 µM

Ask: Please report the recorded TGI for COC(=O)c1cc([N+](=O)[O-])cc([N+](=O)[O-])c1Cl .
Reply: 5.66 µM

Ask: What value of TGI has been reported for the following compound? C=C[C@]1(O[Si](C)(C)C)C[C@@]2(C(=O)OCC)C(O)C(=O)N3CCc4cc(OC)c(OC)cc4[C@]312 (some centres undefined)
Reply: > 100 µM

Ask: Entry N#Cc1cc2c(cc1Cl)Sc1nnc(Nc3cccc4ccccc34)n1S2(=O)=O has what TGI?
Reply: 7.77 µM

Ask: What does the record list as TGI for Oc1cccnc1/C=N/OCc1ccccc1 ?
Reply: > 100 µM

Ask: What value of measured TGI is listed for CC(=O)OCC(CC[CH2][Sn]([Cl])([Cl])[c]1ccccc1)OC(C)=O (centres undefined) ?
Reply: 58.9 µM

Ask: Field request: TGI | item: CC(C)N(Cc1ccc(F)cc1)c1ccc(CO)c(Cl)c1
Reply: 20.1 µM
